system: Theta-mediated end joining (TMEJ) process in HEK293T cells; experiment: TMEJ reporter assay (NanoGlo luciferase); type: cell-based; conditions: Homo sapiens, HEK-293T, HEK293T cells electroporated with TMEJ substrate, 24 hours
Readout: pIC50
# log scale: pIC50 equals minus log10 of the concentration in mol/L

Prompt: Find the measured pIC50 of COc1cnc(C(F)F)cc1-c1cc(C)ccc1C(=O)NS(=O)(=O)Cc1ccc([C@H](C)OC)cc1 and report it.
Response: 9.00

Prompt: Find the measured pIC50 of [2H]C([2H])([2H])O[C@@H](C)c1ccc(CS(=O)(=O)NC(=O)c2ccc(C([2H])([2H])[2H])cc2-c2cc(C(F)F)c(F)cc2OC)cc1 and report it.
Response: 8.64

Prompt: Find the measured pIC50 of COc1cnc(Cl)cc1-c1cc(C)ncc1C(=O)Nc1nnc(OC[C@H]2COCCO2)s1 [Ref. 1, reference compound] and report it.
Response: 8.30

Prompt: Find the measured pIC50 of COc1cnc(C(F)F)cc1-c1cc(C)ccc1C(=O)NS(=O)(=O)Cc1ccc([C@@H](C)OC)cc1 and report it.
Response: 8.70
